system: 958667-338-R-J2-PDC tumor spheroids viability; test: Anticancer human tumor 958667-338-R-J2-PDC patient-derived colon adenocarcinoma cell line growth inhibition [PI3K]; details: compound 10 µM; stronger effect = lower value; spheroids with HUVEC and MSC
OBSERVABLE: viability, T/C

Request body: readout viability, T/C, system 958667-338-R-J2-PDC tumor spheroids viability, query CC(Nc1ncnc2nc[nH]c12)c1cc2cccc(Cl)c2c(=O)n1-c1ccccc1 (stereo not drawn) . Return the value.
92.9% [middle of 8 runs]

Request body: readout viability, T/C, system 958667-338-R-J2-PDC tumor spheroids viability, query C#Cc1c(F)ccc2cc(O)cc(-c3ncc4c(N5CC6CCC(C5)N6)nc(OCC56CCCN5CC(F)C6)nc4c3F)c12 (stereo not drawn) . Return the value.
63.8% [middle of 4 runs]

Request body: readout viability, T/C, system 958667-338-R-J2-PDC tumor spheroids viability, query CC1(C)CCC(Nc2ncc(C(F)(F)F)c(-c3c[nH]c4c(P(C)(C)=O)c(C#N)ccc34)n2)CN1 (stereo not drawn) . Return the value.
36.4% [middle of 4 runs]

Request body: readout viability, T/C, system 958667-338-R-J2-PDC tumor spheroids viability, query CC(Cn1ccc(-c2ccc(C#N)c(Cl)c2)n1)NC(=O)c1cc(C(C)O)[nH]n1 (stereo not drawn) . Return the value.
89.4% [middle of 4 runs]

Request body: readout viability, T/C, system 958667-338-R-J2-PDC tumor spheroids viability, query CCCS(=O)(=O)Nc1ccc(F)c(C(=O)c2c[nH]c3ncc(-c4ccc(Cl)cc4)cc23)c1F . Return the value.
10.9% [middle of 4 runs]

Request body: readout viability, T/C, system 958667-338-R-J2-PDC tumor spheroids viability, query Cc1nc(NC(=O)N2CCCC2C(N)=O)sc1-c1ccnc(C(C)(C)C(F)(F)F)c1 (stereo not drawn) . Return the value.
66% [middle of 8 runs]

Request body: readout viability, T/C, system 958667-338-R-J2-PDC tumor spheroids viability, query C[C@@H](NC(=O)c1ncnc(N)c1Cl)c1ncc(C(=O)Nc2cc(C(F)(F)F)c(Cl)cn2)s1 . Return the value.
98.6% [middle of 4 runs]

Request body: readout viability, T/C, system 958667-338-R-J2-PDC tumor spheroids viability, query Cn1ncc(Cl)c1-c1cc(C(=O)NC(CN)Cc2cccc(F)c2)sc1Cl (stereo not drawn) . Return the value.
39.3% [middle of 4 runs]

###

tested on: 958667-338-R-J2-PDC tumor spheroids viability; test: Anticancer human tumor 958667-338-R-J2-PDC cell line growth inhibition [PI3K]; conditions: curve of first compound; second compound 0.316 µM; spheroids with HUVEC and MSC;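 also: spheroids exposed to compounds for seven days before readout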
pIC50: −log10 of the molar value.
OBSERVABLE: pIC50

Recorded pIC50 of CC(Cn1ccc(-c2ccc(C#N)c(Cl)c2)n1)NC(=O)c1cc(C(C)O)[nH]n1 (stereo not given) + CC(Nc1ccc2c(c1)OCCn1cc(N3C(=O)OCC3C(F)F)nc1-2)C(N)=O , please.
< 5.00

Recorded pIC50 of CC(=O)c1c(C)c2cnc(Nc3ccc(N4CCNCC4)cn3)nc2n(C2CCCC2)c1=O + COc1c(OCCCN2CCOCC2)ccc2c3n(c(=NC(=O)c4cnc(N)nc4)nc12)CCN3 , please.
> 9.50

Recorded pIC50 of C=CC(=O)N1CCN(c2nc(=O)n(-c3c(C)ccnc3C(C)C)c3nc(-c4c(O)cccc4F)c(F)cc23)C(C)C1 (stereo not given) + Cc1nc(NC(=O)N2CCCC2C(N)=O)sc1-c1ccnc(C(C)(C)C(F)(F)F)c1 , please.
< 5.00

Recorded pIC50 of Cn1ncnc1[C@H]1c2n[nH]c(=O)c3cc(F)cc(c23)N[C@@H]1c1ccc(F)cc1 + COc1c(OCCCN2CCOCC2)ccc2c3n(c(=NC(=O)c4cnc(N)nc4)nc12)CCN3 , please.
> 9.50

Recorded pIC50 of CC(C)NCC(C(=O)N1CCN(c2ncnc3c2C(C)CC3O)CC1)c1ccc(Cl)cc1 (stereo not given) + COc1c(OCCCN2CCOCC2)ccc2c3n(c(=NC(=O)c4cnc(N)nc4)nc12)CCN3 , please.
> 7.50

###

system: 958667-338-R-J2-PDC tumor spheroids viability; test: Anticancer human tumor 958667-338-R-J2-PDC cell line growth inhibition [PI3K]; settings: second compound 0.01 µM; first compound 0.0316 µM; stronger effect = lower value; spheroids with HUVEC and MSC;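 also: spheroids exposed to compounds for seven days before readout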
OBSERVABLE: viability, T/C (%)
Write the number in % without appending the unit.

Recorded viability, T/C of CCCS(=O)(=O)Nc1ccc(F)c(C(=O)c2c[nH]c3ncc(-c4ccc(Cl)cc4)cc23)c1F + CC(Nc1ccc2c(c1)OCCn1cc(N3C(=O)OCC3C(F)F)nc1-2)C(N)=O , please.
105

Recorded viability, T/C of C#Cc1c(F)ccc2cc(O)cc(-c3ncc4c(N5CC6CCC(C5)N6)nc(OCC56CCCN5CC(F)C6)nc4c3F)c12 (stereo not given) + CC(Nc1ccc2c(c1)OCCn1cc(N3C(=O)OCC3C(F)F)nc1-2)C(N)=O , please.
101

Recorded viability, T/C of CC1(C)CCC(Nc2ncc(C(F)(F)F)c(-c3c[nH]c4c(P(C)(C)=O)c(C#N)ccc34)n2)CN1 (stereo not given) + CC(Nc1ccc2c(c1)OCCn1cc(N3C(=O)OCC3C(F)F)nc1-2)C(N)=O , please.
135

Recorded viability, T/C of CNC(=O)c1ccc(N2C(=S)N(c3ccc(C#N)c(C(F)(F)F)c3)C(=O)C2(C)C)cc1F + CC(Nc1ccc2c(c1)OCCn1cc(N3C(=O)OCC3C(F)F)nc1-2)C(N)=O , please.
115

Recorded viability, T/C of CC(=O)c1c(C)c2cnc(Nc3ccc(N4CCNCC4)cn3)nc2n(C2CCCC2)c1=O + COc1c(OCCCN2CCOCC2)ccc2c3n(c(=NC(=O)c4cnc(N)nc4)nc12)CCN3 , please.
83.3

###

tested on: 958667-338-R-J2-PDC tumor spheroids viability; experiment: Anticancer human tumor 958667-338-R-J2-PDC cell line growth inhibition [PI3K]; settings: second compound 1 µM; first compound 1 µM; stronger effect = lower value; spheroids with HUVEC and MSC;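 also: spheroids exposed to compounds for seven days before readout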
What viability, T/C was measured for each of the following?
Write the number in % without appending the unit.

Recorded viability, T/C of C[C@@H](NC(=O)c1ncnc(N)c1Cl)c1ncc(C(=O)Nc2cc(C(F)(F)F)c(Cl)cn2)s1 + COc1c(OCCCN2CCOCC2)ccc2c3n(c(=NC(=O)c4cnc(N)nc4)nc12)CCN3 , please.
20.9

Recorded viability, T/C of C=CC(=O)N1CCN(c2nc(=O)n(-c3c(C)ccnc3C(C)C)c3nc(-c4c(O)cccc4F)c(F)cc23)C(C)C1 (stereo unspecified) + Cc1nc(NC(=O)N2CCCC2C(N)=O)sc1-c1ccnc(C(C)(C)C(F)(F)F)c1 , please.
83

Recorded viability, T/C of C=CC(=O)N1CCN(c2nc(=O)n(-c3c(C)ccnc3C(C)C)c3nc(-c4c(O)cccc4F)c(F)cc23)C(C)C1 (stereo unspecified) + COc1c(OCCCN2CCOCC2)ccc2c3n(c(=NC(=O)c4cnc(N)nc4)nc12)CCN3 , please.
21.2

Recorded viability, T/C of CCN1CCN(Cc2ccc(Nc3ncc(F)c(-c4cc(F)c5nc(C)n(C(C)C)c5c4)n3)nc2)CC1 + CC(Nc1ncnc2nc[nH]c12)c1cc2cccc(Cl)c2c(=O)n1-c1ccccc1 , please.
66.2

Recorded viability, T/C of CC(Cn1ccc(-c2ccc(C#N)c(Cl)c2)n1)NC(=O)c1cc(C(C)O)[nH]n1 (stereo unspecified) + CC(Nc1ccc2c(c1)OCCn1cc(N3C(=O)OCC3C(F)F)nc1-2)C(N)=O , please.
62.8

Recorded viability, T/C of C[C@@H](NC(=O)c1ncnc(N)c1Cl)c1ncc(C(=O)Nc2cc(C(F)(F)F)c(Cl)cn2)s1 + Cc1nc(NC(=O)N2CCCC2C(N)=O)sc1-c1ccnc(C(C)(C)C(F)(F)F)c1 , please.
94.9

Recorded viability, T/C of C#Cc1c(F)ccc2cc(O)cc(-c3ncc4c(N5CC6CCC(C5)N6)nc(OCC56CCCN5CC(F)C6)nc4c3F)c12 (stereo unspecified) + CC(Nc1ccc2c(c1)OCCn1cc(N3C(=O)OCC3C(F)F)nc1-2)C(N)=O , please.
57.2

Recorded viability, T/C of Cn1nccc1Nc1nccc(-c2ccn(C(CO)c3ccc(Cl)c(F)c3)c(=O)c2)n1 (stereo unspecified) + Cc1nc(NC(=O)N2CCCC2C(N)=O)sc1-c1ccnc(C(C)(C)C(F)(F)F)c1 , please.
68.8

Recorded viability, T/C of Cn1ncc(Cl)c1-c1cc(C(=O)NC(CN)Cc2cccc(F)c2)sc1Cl (stereo unspecified) + COc1c(OCCCN2CCOCC2)ccc2c3n(c(=NC(=O)c4cnc(N)nc4)nc12)CCN3 , please.
20.5

Recorded viability, T/C of CCCS(=O)(=O)Nc1ccc(F)c(C(=O)c2c[nH]c3ncc(-c4ccc(Cl)cc4)cc23)c1F + CC(Nc1ccc2c(c1)OCCn1cc(N3C(=O)OCC3C(F)F)nc1-2)C(N)=O , please.
68.9

Recorded viability, T/C of C[C@@H](NC(=O)c1ncnc(N)c1Cl)c1ncc(C(=O)Nc2cc(C(F)(F)F)c(Cl)cn2)s1 + CC(Nc1ncnc2nc[nH]c12)c1cc2cccc(Cl)c2c(=O)n1-c1ccccc1 , please.
100
